Tested on: CAKI-1
experimental-details: NCI tumour cell line growth inhibition, 48 h
Activity calls are given as the source filed them. Cut-off read from the data, not from the text of the source: active = GI50 up to about 1.1 µM and inactive = higher.
readout-label: GI50

Value wanted: GI50 (CAKI-1) of entry CSc1nc(NC2OC(COC(C)=O)C(OC(C)=O)C(OC(C)=O)C2OC(C)=O)c2c(n1)OCC2=O (stereo unspecified)
> 100 µM (inactive)

Value wanted: GI50 (CAKI-1) of entry c1ccc2[nH]c(CNc3ccc(C4C[Se]N=N4)cc3)nc2c1 (stereo unspecified)
> 100 µM (inactive)

Value wanted: GI50 (CAKI-1) of entry N#CCC(=O)N/N=C(\CCN1CCCC1)CC(c1ccccc1)c1c(O)c2ccccc2oc1=O (stereo unspecified)
> 95.3 µM (inactive)

Value wanted: GI50 (CAKI-1) of entry CC(C#N)NCc1ccc(C(C)NC(C)C#N)cc1 (stereo unspecified)
> 100 µM (inactive)

Value wanted: GI50 (CAKI-1) of entry CN(C)c1ccc(/C=N/CC2CCCN3CCCCC23)cc1 (stereo unspecified)
> 100 µM (inactive)

Value wanted: GI50 (CAKI-1) of entry Clc1cc(OC23CC4CC(CC(C4)C2)C3)nc(Cl)n1
1.94 µM (inactive)

Value wanted: GI50 (CAKI-1) of entry Cc1ccc(C(=O)O/N=C2/CCC/C2=C\c2ccccc2)cc1
> 100 µM (inactive)

Value wanted: GI50 (CAKI-1) of entry Cc1coc2c1C[C@@]1(C)[C@H](CCC[C@@H]1C)[C@H]2O
44.5 µM (inactive)

Value wanted: GI50 (CAKI-1) of entry Cc1ccc(S(=O)(=O)NC(=O)C2S(=O)(=O)OCCOS2(=O)=O)cc1
> 100 µM (inactive)

Value wanted: GI50 (CAKI-1) of entry CCn1c2ccccc2c(=O)c2c(OC)ccc(OC)c21
22.9 µM (inactive)

Value wanted: GI50 (CAKI-1) of entry O=C(NNC(=S)NC1CCCCC1)C12CC3CC(CC(C3)C1)C2
> 100 µM (inactive)

Value wanted: GI50 (CAKI-1) of entry COc1nc(N)c(/N=C/C(OC(C)=O)C(OC(C)=O)C(COC(C)=O)OC(C)=O)c(=O)n1C (stereo unspecified)
> 100 µM (inactive)

Value wanted: GI50 (CAKI-1) of entry CC1OC(n2cc(F)c(=O)[nH]c2=O)CCC1=O (stereo unspecified)
> 100 µM (inactive)

Value wanted: GI50 (CAKI-1) of entry COc1cc(OC)cc(N2CCC(c3c(N)nc(N)nc3Cl)CC2)c1
> 100 µM (inactive)

Value wanted: GI50 (CAKI-1) of entry CCOC(=O)c1c(OCC)[nH]c(=O)c(C(c2cccs2)c2c(O)c(C(=O)OCC)c(OCC)[nH]c2=O)c1O
18 µM (inactive)

Value wanted: GI50 (CAKI-1) of entry Cc1cn(C2CC(n3cc(Cn4ccc(=O)[nH]c4=O)nn3)C(CO)O2)c(=O)[nH]c1=O (stereo unspecified)
> 100 µM (inactive)

Value wanted: GI50 (CAKI-1) of entry CCCn1c2ccccc2c2ccc3c(c21)C(=O)C=CC3=O
2.78 µM (inactive)

Value wanted: GI50 (CAKI-1) of entry CCCCc1ccc(Nc2nc(Cl)c3ncn(COCCOC(C)=O)c3n2)cc1
1.89 µM (inactive)

Value wanted: GI50 (CAKI-1) of entry CCOC(=O)NC(C(C(=O)OCC)C(=O)OCC)(C(F)(F)F)C(F)(F)F
> 100 µM (inactive)

Value wanted: GI50 (CAKI-1) of entry Cc1ccc(-c2c(C#N)c(N)[nH]c(=S)c2C#N)cc1
49.8 µM (inactive)

Value wanted: GI50 (CAKI-1) of entry COC(=O)C(Cc1c(-c2[nH]c3ccccc3c2CC(NC(C)=O)C(=O)OC)[nH]c2ccccc12)NC(C)=O (stereo unspecified)
> 100 µM (inactive)

Value wanted: GI50 (CAKI-1) of entry C=C1N(S(=O)(=O)c2ccc(C)cc2)C(=O)OCC12CCCC2
94.4 µM (inactive)

Value wanted: GI50 (CAKI-1) of entry CC(C)(C)CC(N)=O
> 100 µM (inactive)

Value wanted: GI50 (CAKI-1) of entry O=c1[nH]ccc2c1ccn2C1CC(O)C(CO)O1 (stereo unspecified)
> 100 µM (inactive)

Value wanted: GI50 (CAKI-1) of entry Cc1ccc2c(c1)C(C1Cc3c(C)cccc3C1=O)OC2=O (stereo unspecified)
> 100 µM (inactive)

Value wanted: GI50 (CAKI-1) of entry Cn1nc2ccccc2cc1=O
> 100 µM (inactive)

Value wanted: GI50 (CAKI-1) of entry Cc1nc(C(N)=S)sc1/C(CC(=O)C(=O)Nc1cccc2ccc(O)cc12)=N\NC(=O)c1ccncc1
> 100 µM (inactive)

Value wanted: GI50 (CAKI-1) of entry COc1ccc(NC(=S)Nc2c(C)n(C)n(-c3ccccc3)c2=O)cc1
> 100 µM (inactive)

Value wanted: GI50 (CAKI-1) of entry CC(c1ccc(Br)cc1)C(C(=O)O)C(=O)O (stereo unspecified)
> 100 µM (inactive)

Value wanted: GI50 (CAKI-1) of entry COc1ccc(-n2c(C)nc3ccc(/N=C/c4ccccc4)cc3c2=O)cc1
> 100 µM (inactive)

Value wanted: GI50 (CAKI-1) of entry C/C(=C/CC[C@]1(CO)CC[C@]2(C)[C@H](CC[C@@H]3[C@@]4(C)CC[C@H](OC5OC(CO)C(O)C(O)C5OC5OC(CO)C(O)C(O)C5O)C(C)(C)[C@@H]4CC[C@]32C)[C@H]1O)CO (stereo partly specified)
> 100 µM (inactive)

Value wanted: GI50 (CAKI-1) of entry CC[n+]1cnc(N)c2c(-c3ccc(Cl)cc3)cn(-c3ccc(C)cc3)c21
16 µM (inactive)

Value wanted: GI50 (CAKI-1) of entry O=[N+]([O-])C[C@@]12O[C@]3(O)C4C5CC(C6C5C3C61)C42 (stereo partly specified)
> 100 µM (inactive)

Value wanted: GI50 (CAKI-1) of entry CC1=NN(c2ccccc2)C(=O)/C1=C/c1ccc(O)cc1
> 100 µM (inactive)

Value wanted: GI50 (CAKI-1) of entry Cc1cn(C2CC(N=[N+]=[N-])C(CO)O2)c(=O)n(CCCCO)c1=O (stereo unspecified)
> 100 µM (inactive)

Value wanted: GI50 (CAKI-1) of entry S=C(NN=C1NCCCCN1)Nc1ccccc1
> 100 µM (inactive)

Value wanted: GI50 (CAKI-1) of entry CCC(C)C(NC(=O)C(CCCC[N+](=N)N)NC(=O)C(CCCC[N+](=N)N)NC(=O)c1ccc(OC)cc1)C(=O)NC(CCCC[N+](=N)N)C(=O)N1CCCC1C(=O)NC(CCCCN)C(=O)NC(CC(C)C)C(N)=O (stereo unspecified)
> 100 µM (inactive)

Value wanted: GI50 (CAKI-1) of entry CC(=O)Oc1ccc(CO)cc1OC(C)=O
> 100 µM (inactive)

Value wanted: GI50 (CAKI-1) of entry CC1CNC(c2ccc3c(c2)Cc2cc(C4=NC(C)CN4)ccc2-3)=N1 (stereo unspecified)
> 100 µM (inactive)

Value wanted: GI50 (CAKI-1) of entry OCC1OC(N2CCN(C3OC(CO)C(O)C(O)C3O)CC2)C(O)C(O)C1O (stereo unspecified)
> 100 µM (inactive)

Value wanted: GI50 (CAKI-1) of entry Cc1ccccc1OC(C)C(=O)NN1C(=O)CC(=O)N(c2ccc(Cl)cc2)C1=S (stereo unspecified)
37.8 µM (inactive)
